system_tested: Glucocorticoid receptor (Homo sapiens)
Sequence (P04150 whole entry): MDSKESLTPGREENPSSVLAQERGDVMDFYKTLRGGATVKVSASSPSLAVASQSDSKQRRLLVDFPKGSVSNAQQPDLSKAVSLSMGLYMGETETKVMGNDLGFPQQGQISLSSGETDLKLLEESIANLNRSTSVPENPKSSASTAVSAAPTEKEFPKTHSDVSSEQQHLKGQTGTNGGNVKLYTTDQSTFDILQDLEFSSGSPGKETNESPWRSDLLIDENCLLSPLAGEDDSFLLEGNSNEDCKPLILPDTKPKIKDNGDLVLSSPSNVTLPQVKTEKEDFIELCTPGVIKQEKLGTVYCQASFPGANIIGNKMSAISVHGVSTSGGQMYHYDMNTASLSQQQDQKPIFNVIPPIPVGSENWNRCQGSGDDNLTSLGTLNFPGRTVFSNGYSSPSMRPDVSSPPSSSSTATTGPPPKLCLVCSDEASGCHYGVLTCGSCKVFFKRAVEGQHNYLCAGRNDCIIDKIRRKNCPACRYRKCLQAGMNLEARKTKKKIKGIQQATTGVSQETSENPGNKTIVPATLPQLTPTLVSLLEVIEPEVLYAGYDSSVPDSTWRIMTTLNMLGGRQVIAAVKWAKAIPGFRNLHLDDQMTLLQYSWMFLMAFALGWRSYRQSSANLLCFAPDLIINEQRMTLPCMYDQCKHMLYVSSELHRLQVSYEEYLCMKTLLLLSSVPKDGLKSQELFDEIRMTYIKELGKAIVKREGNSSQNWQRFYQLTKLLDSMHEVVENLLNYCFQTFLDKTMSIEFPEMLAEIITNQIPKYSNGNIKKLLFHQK
measurement_protocol: Agonist activity at glucocorticoid receptor in human A549 cells by NF-kappaB transrepression assay
Type: functional, cell-based
# IC50 per record follows
attribute_measured: IC50 (nM)

1. Cc1cc(NC[C@H](C)NS(=O)(=O)C2CC2)c2cnn(-c3cccc(C(=O)N(C)[C@H](C)C(N)=O)c3)c2c1: 2.51
2. Cc1cc(NC[C@H](C)NS(=O)(=O)C2CC2)c2cnn(-c3cccc(C(=O)NC(C)C)c3)c2c1: 2
3. Cc1cc(NC[C@H](C)NS(=O)(=O)C(C)C)c2cnn(-c3cccc(C(=O)NC(C)C)c3)c2c1: 7.94
4. Cc1cc(NC[C@H](C)NS(C)(=O)=O)c2cnn(-c3cccc(C(=O)NC(C)C)c3)c2c1: 200
